# credit: PubChem BioAssay AID1918994

- System: 292921-168-R-J2-PDC complex spheroid growth;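 also: spheroids exposed to compounds for seven days after three days of growth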
- assay.text: Anticancer human tumor 292921-168-R-J2-PDC patient-derived pancreatic carcinoma cell line growth inhibition [AhR]
- test.conditions: second compound 3.16 µM; first compound 0.01 µM; active compounds read low
measure.name: viability, T/C (%)
The response must be a number in % with no trailing unit.

I have this compound here, CC[C@@]1(O)C(=O)OCc2c1cc1n(c2=O)Cc2cc3c(CN(C)C)c(O)ccc3nc2-1 + Cc1ccccc1N=Nc1ccc(NC(=O)c2ccnn2C)c(C)c1 , and I need its recorded viability, T/C.
58.2

Consider next the compound CC[C@@]1(O)C(=O)OCc2c1cc1n(c2=O)Cc2cc3c(CN(C)C)c(O)ccc3nc2-1 + Cc1cncc(-c2nc(NCCc3c[nH]c4ccccc34)c3ncn(C(C)C)c3n2)c1 in the same way.
59.4

Consider next the compound CC1COCCN1c1cc(-c2ccnn2C)c2ccnc(-c3ccn[nH]3)c2n1 (stereo not drawn) + CC(CO)NC(=O)c1cc(-c2ccc(Cl)cc2)nn(-c2cnn(C)c2)c1=O in the same way.
75.2
